Molecular target: FXR (Homo sapiens, UniProt Q96RI1)
Sequence (Q96RI1 1-486): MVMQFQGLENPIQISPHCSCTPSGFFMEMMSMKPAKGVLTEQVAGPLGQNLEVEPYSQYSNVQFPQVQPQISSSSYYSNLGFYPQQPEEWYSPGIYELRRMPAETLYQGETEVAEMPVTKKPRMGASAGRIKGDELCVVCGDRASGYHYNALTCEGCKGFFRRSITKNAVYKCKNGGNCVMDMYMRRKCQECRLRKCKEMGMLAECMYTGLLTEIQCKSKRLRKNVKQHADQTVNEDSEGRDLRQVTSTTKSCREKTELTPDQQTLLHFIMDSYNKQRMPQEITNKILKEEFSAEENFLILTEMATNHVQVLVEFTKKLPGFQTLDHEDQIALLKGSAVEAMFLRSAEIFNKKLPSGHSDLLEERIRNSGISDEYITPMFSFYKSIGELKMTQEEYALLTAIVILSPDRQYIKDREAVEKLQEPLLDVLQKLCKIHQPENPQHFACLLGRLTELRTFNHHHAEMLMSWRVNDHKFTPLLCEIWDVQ
Sequence (P19793 1-462 partner): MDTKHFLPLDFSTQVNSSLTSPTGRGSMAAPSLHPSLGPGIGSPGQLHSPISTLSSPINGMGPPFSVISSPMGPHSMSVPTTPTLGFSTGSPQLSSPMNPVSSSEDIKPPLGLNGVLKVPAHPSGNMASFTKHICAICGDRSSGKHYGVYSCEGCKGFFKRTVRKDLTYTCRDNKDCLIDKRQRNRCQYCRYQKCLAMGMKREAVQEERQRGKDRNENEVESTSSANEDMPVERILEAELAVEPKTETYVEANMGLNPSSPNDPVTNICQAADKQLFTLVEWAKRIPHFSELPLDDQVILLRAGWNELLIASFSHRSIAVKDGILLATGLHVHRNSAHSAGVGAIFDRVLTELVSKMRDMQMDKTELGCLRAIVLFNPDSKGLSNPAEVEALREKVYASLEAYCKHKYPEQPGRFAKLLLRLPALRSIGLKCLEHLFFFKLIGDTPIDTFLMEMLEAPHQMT
Assay: In Vitro FXR Assay (TK): TK-ECRE-luc reporter in transfected CV-1 cells
Details: CV-1 cells transfected with hFXR, hRXR, 18 h incubation, luminescence
reported_metric: EC50

smiles_structure=COC(=O)/C=C/c1cccc(N(Cc2ccc(-c3ccc(N(C)C)cc3)cc2)C(=O)C(C)(C)C)c1 assay_system="FXR (Homo sapiens, UniProt Q96RI1)" test_value="1000 to 10000 nM"
smiles_structure=COC(=O)/C=C/c1cccc(N(Cc2ccc(-c3ccc(N(C)C)cc3)cc2)C(=O)C2CCCC2)c1 assay_system="FXR (Homo sapiens, UniProt Q96RI1)" test_value="≤ 1000 nM"
smiles_structure=COC(=O)/C=C/c1cccc(N(Cc2ccc(-c3ccncc3)cc2)C(=O)C2CCCCC2)c1 assay_system="FXR (Homo sapiens, UniProt Q96RI1)" test_value="1000 to 10000 nM"
smiles_structure=COC(=O)/C=C/c1cccc(N(Cc2ccc(-c3ccc(N(C)C)cc3)cc2)C(=O)C(C)(C)CO)c1 assay_system="FXR (Homo sapiens, UniProt Q96RI1)" test_value="1000 to 10000 nM"

###

Catalogue of compounds with associated pEC50
target: UniProt:Q96RI1; assay: In Vitro FXR Assay (TK): TK-ECRE-luc reporter in transfected CV-1 cells; conditions: CV-1 cells transfected with hFXR, hRXR, 18 h incubation, luminescence
pEC50: −log10 of the molar value.
reported_metric: pEC50

compound="COC(=O)/C=C/c1cccc(N(Cc2ccc(-c3ccc(N(C)C)cc3)cc2)C(=O)C2(C)CCOCC2)c1 [13.6]" assay_system=UniProt:Q96RI1 test_value="5.00 to 6.00"
compound="COC(=O)/C=C/c1cccc(N(Cc2ccc(-c3ccc4sncc4c3)cc2)C(=O)C2CCCCC2)c1 [75.17]" assay_system=UniProt:Q96RI1 test_value="5.00 to 6.00"
compound="COC(=O)/C=C/c1cccc(N(Cc2ccc(-c3ccc4oncc4c3)cc2)C(=O)C2CCCCC2)c1 [75.15]" assay_system=UniProt:Q96RI1 test_value="< 5.00"
compound="COC(=O)/C=C/c1cccc(N(Cc2ccc(-c3cccc(N(C)C)c3)cc2)C(=O)C2CCCCC2)c1 [compound 37]" assay_system=UniProt:Q96RI1 test_value="5.00 to 6.00"

###

Catalogue of compounds with associated EC50
Target: FXR (Homo sapiens)
Construct: expressed in transfected cells; host or cells: CV-1 cells
Sequence (Q96RI1 1-486): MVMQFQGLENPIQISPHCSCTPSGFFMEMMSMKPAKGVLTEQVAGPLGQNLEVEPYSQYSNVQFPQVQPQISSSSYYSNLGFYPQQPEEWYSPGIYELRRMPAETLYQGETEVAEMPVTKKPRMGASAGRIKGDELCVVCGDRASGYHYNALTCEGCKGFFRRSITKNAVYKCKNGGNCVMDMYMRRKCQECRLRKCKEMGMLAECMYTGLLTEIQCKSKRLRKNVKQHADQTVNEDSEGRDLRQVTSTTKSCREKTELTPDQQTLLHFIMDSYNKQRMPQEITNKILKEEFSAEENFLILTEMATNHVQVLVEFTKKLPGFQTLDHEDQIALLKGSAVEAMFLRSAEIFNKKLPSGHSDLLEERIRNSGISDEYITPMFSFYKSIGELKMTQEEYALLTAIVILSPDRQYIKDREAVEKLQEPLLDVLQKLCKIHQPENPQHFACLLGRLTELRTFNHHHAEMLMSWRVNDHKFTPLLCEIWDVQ
Sequence (P19793 1-462 partner): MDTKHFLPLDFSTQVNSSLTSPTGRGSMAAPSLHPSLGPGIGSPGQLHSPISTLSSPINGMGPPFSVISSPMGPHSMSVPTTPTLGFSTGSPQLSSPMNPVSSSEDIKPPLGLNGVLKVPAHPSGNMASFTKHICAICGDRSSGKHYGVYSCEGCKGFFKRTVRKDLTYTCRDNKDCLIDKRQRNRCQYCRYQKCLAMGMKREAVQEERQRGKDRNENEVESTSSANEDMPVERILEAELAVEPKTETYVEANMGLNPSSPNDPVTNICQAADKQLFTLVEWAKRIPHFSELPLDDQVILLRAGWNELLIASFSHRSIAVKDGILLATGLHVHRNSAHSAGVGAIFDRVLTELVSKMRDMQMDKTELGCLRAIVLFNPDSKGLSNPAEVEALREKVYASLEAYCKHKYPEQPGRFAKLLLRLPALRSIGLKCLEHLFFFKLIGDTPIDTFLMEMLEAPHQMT
Assay: In Vitro FXR Assay (TK): TK-ECRE-luc reporter in transfected CV-1 cells
Assay type: cell-based
Details: CV-1 cells transfected with hFXR, hRXR, 18 h incubation, luminescence
reported_metric: EC50

smiles_structure=CC(C)OC(=O)/C=C/c1cccc(N(Cc2ccc(-c3ccc(N(C)C)cc3)cc2)C(=O)C2CCCCC2)c1 assay_system="FXR (Homo sapiens)" test_value="1 to 10 µM"
smiles_structure=COC(=O)/C=C/c1cccc(N(Cc2ccc(-c3cccc(C(C)C)c3)cc2)C(=O)C2CCCCC2)c1 assay_system="FXR (Homo sapiens)" test_value="> 10 µM"
smiles_structure=COC(=O)/C=C/c1cccc(N(Cc2ccc(-c3ccc4c(C)nsc4c3)cc2)C(=O)C2CCCCC2)c1 assay_system="FXR (Homo sapiens)" test_value="≤ 1 µM"
smiles_structure=C=C(C)c1ccc(-c2ccc(CN(C(=O)C3CCCCC3)c3cccc(/C=C/C(=O)OC)c3)cc2)cc1 assay_system="FXR (Homo sapiens)" test_value="1 to 10 µM"

###

biological target: FXR (Homo sapiens, UniProt Q96RI1); experiment: In Vitro FXR Assay (TK): TK-ECRE-luc reporter in transfected CV-1 cells; conditions: CV-1 cells transfected with hFXR, hRXR, 18 h incubation, luminescence
pEC50: −log10 of the molar value.
reported_metric: pEC50

compound="COC(=O)CCc1cc(C)cc(N(Cc2ccc(-c3ccc(N(C)C)cc3)cc2)C(=O)C2CCCCC2)c1 [compound 90]" assay_system="FXR (Homo sapiens, UniProt Q96RI1)" test_value="5.00 to 6.00"
compound="COC(=O)/C=C/c1cccc(N(Cc2ccc(-c3c(F)cccc3F)cc2)C(=O)C2CCCCC2)c1 [compound 59]" assay_system="FXR (Homo sapiens, UniProt Q96RI1)" test_value="5.00 to 6.00"
compound="COC(=O)/C=C/c1cccc(N(Cc2ccc(-c3ccc4[nH]ncc4c3)cc2)C(=O)C2CCCCC2)c1 [compound 49]" assay_system="FXR (Homo sapiens, UniProt Q96RI1)" test_value="5.00 to 6.00"
compound="COC(=O)/C=C/c1cc(N(Cc2ccc(-c3ccc(N(C)C)cc3)cc2)C(=O)C2CCCCC2)ccc1C [compound 40]" assay_system="FXR (Homo sapiens, UniProt Q96RI1)" test_value="< 5.00"
compound="COC(=O)/C=C/c1cccc(N(Cc2ccc(-c3ccc(F)cc3)cc2)C(=O)C2CCCCC2)c1 [compound 25]" assay_system="FXR (Homo sapiens, UniProt Q96RI1)" test_value="5.00 to 6.00"
compound="COC(=O)/C=C/c1cccc(N(Cc2ccc(-c3ccc(OC)c(C#N)c3)cc2)C(=O)C2CCCCC2)c1 [compound 64]" assay_system="FXR (Homo sapiens, UniProt Q96RI1)" test_value="≥ 6.00"
compound="COC(=O)/C=C/c1cccc(N(Cc2ccc(-c3ccc(N(C)C)cc3)cc2)C(=O)C2(C)CCCCC2)c1 [13.3]" assay_system="FXR (Homo sapiens, UniProt Q96RI1)" test_value="5.00 to 6.00"
compound="COC(=O)/C=C/c1cccc(N(Cc2ccc(-c3ccc(C(F)(F)F)cc3)cc2)C(=O)C2CCCCC2)c1 [compound 36]" assay_system="FXR (Homo sapiens, UniProt Q96RI1)" test_value="5.00 to 6.00"
compound="COC(=O)/C=C/c1cccc(N(Cc2ccc(-c3ccc(N(C)C)cc3)cc2)C(=O)C2CCC2)c1 [compound 15]" assay_system="FXR (Homo sapiens, UniProt Q96RI1)" test_value="5.00 to 6.00"
compound="COC(=O)/C=C/c1cccc(N(Cc2ccc(-c3ccc(N4CCCC4)cc3)cc2)C(=O)C2CCCCC2)c1 [compound 48]" assay_system="FXR (Homo sapiens, UniProt Q96RI1)" test_value="5.00 to 6.00"
compound="COC(=O)/C=C/c1cccc(N(Cc2ccc(C3CCCCC3)cc2)C(=O)C2CCCCC2)c1 [compound 13]" assay_system="FXR (Homo sapiens, UniProt Q96RI1)" test_value="< 5.00"
compound="COC(=O)/C=C/c1cccc(N(Cc2ccc(-c3ccc(N(C)C)cc3)c(C#N)c2)C(=O)C2CCCCC2)c1 [62.11]" assay_system="FXR (Homo sapiens, UniProt Q96RI1)" test_value="≥ 6.00"
compound="COC(=O)/C=C/c1cc(C#N)cc(N(Cc2ccc(-c3ccc(N(C)C)cc3)cc2)C(=O)C2CCCCC2)c1 [86.9]" assay_system="FXR (Homo sapiens, UniProt Q96RI1)" test_value="5.00 to 6.00"
compound="COC(=O)/C=C/c1cccc(N(Cc2ccc(-c3ccc4c(c3)ncn4C)cc2)C(=O)C2CCCCC2)c1 [compound 74]" assay_system="FXR (Homo sapiens, UniProt Q96RI1)" test_value="5.00 to 6.00"
compound="COC(=O)/C=C/c1cccc(N(Cc2ccc(-c3ccc(N(C)C)c(OC)c3)cc2)C(=O)C2CCCCC2)c1 [compound 75]" assay_system="FXR (Homo sapiens, UniProt Q96RI1)" test_value="5.00 to 6.00"
